target: UniProtKB P51531; assay: MSD SMARCA2 degradation in A549 cell line; format: cell-based; parameters: endogenous in cells; conditions: A549, A549 cells, 24 h
Sequence (P51531 whole entry): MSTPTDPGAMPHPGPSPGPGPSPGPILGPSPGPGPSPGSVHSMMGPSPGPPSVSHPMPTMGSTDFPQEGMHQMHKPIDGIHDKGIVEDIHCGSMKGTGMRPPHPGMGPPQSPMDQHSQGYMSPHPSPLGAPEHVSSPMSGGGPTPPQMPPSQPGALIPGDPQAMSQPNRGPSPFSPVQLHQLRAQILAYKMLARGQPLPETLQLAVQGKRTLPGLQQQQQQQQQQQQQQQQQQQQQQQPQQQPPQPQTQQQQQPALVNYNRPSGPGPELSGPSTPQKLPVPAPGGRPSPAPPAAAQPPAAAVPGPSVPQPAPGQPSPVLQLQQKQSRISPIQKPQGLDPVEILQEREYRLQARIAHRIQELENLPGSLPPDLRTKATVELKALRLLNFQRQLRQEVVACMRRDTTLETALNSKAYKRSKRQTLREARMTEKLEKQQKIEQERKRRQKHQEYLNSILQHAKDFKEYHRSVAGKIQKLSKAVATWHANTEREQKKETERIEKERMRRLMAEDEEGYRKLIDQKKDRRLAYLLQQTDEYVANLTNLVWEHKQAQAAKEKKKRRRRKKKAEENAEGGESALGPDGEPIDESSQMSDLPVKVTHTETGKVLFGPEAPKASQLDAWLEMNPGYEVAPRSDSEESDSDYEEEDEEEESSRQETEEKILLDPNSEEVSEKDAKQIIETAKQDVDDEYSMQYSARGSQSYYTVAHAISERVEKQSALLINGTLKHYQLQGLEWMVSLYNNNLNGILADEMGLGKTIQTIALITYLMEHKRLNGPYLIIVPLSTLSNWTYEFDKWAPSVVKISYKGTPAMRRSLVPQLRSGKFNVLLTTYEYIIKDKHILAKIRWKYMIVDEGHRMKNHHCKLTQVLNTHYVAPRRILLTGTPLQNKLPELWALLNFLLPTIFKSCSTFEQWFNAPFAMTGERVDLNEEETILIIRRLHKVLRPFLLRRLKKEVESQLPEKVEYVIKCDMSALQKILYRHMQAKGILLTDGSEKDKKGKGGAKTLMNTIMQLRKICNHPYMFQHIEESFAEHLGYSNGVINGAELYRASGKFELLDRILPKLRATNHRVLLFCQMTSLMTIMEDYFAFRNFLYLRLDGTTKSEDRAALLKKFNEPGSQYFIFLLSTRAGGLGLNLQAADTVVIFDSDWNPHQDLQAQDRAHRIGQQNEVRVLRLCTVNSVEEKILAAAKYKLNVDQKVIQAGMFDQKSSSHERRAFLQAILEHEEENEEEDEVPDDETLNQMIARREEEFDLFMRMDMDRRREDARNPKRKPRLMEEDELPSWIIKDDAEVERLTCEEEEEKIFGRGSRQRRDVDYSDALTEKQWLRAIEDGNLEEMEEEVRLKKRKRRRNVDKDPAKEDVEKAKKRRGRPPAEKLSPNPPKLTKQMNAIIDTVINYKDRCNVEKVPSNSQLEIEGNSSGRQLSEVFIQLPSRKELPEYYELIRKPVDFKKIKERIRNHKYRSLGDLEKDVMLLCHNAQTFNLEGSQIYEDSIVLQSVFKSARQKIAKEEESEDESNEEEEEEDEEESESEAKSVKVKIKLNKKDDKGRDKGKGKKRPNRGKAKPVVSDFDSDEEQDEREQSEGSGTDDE
measurement.name: Dmax

Previously resolved entries follow.
QUERY: Supply measured Dmax of Cc1ncsc1-c1ccc(CNC(=O)[C@@H]2C[C@@H](O)CN2C(=O)[C@@H](NC(=O)[C@H]2CC3(C2)C[C@H](N2CCN(c4cnc(N5C6CCC5CN(c5cc(-c7ccccc7O)nnc5N)C6)nc4)CC2)C3)C(C)(C)C)cc1 (single isomer, unassigned) in your reply.
RESULT: 70 to 90%

QUERY: Supply measured Dmax of Cn1nccc1-c1ccc(CNC(=O)[C@@H]2C[C@@H](O)CN2C(=O)[C@@H](NC(=O)[C@H]2CC3(C2)C[C@H](N2CCC(c4cnc(N5C6CCC5CN(c5cc(-c7ccccc7O)nnc5N)C6)nc4)CC2)C3)C(C)(C)C)cc1 (some centres unmarked) in your reply.
RESULT: 70 to 90%

QUERY: Supply measured Dmax of Cc1ncsc1-c1ccc(CNC(=O)[C@@H]2C[C@@H](O)CN2C(=O)[C@@H](NC(=O)[C@H]2CC3(C2)C[C@H](N2CCC(c4ccc(N5C6CCC5CN(c5cc(-c7ccccc7O)nnc5N)C6)cc4)CC2)C3)C(C)(C)C)nc1 (some centres unmarked) in your reply.
RESULT: < 50%

QUERY: Supply measured Dmax of Cc1ncsc1-c1ccc(CNC(=O)[C@@H]2C[C@@H](O)CN2C(=O)C(c2cc(OCCN3CCC(O[C@H]4C[C@H](Oc5cc(N6C7CCC6CN(c6cc(-c8ccccc8O)nnc6N)C7)ccn5)C4)CC3)no2)C(C)C)cc1 (some centres unmarked) in your reply.
RESULT: > 90%

Next:
QUERY: Supply measured Dmax of Cc1ncsc1-c1cnc(CNC(=O)[C@@H]2C[C@@H](O)CN2C(=O)[C@@H](NC(=O)[C@H]2CC3(C2)C[C@H](N2CCC(c4ccc(N5C6CCC5CN(c5cc(-c7ccccc7O)nnc5N)C6)cc4)CC2)C3)C(C)(C)C)nc1 (some centres unmarked) in your reply.
RESULT: < 50%

QUERY: Supply measured Dmax of Cc1ncsc1-c1ccc(CNC(=O)[C@@H]2C[C@@H](O)CN2C(=O)C(c2cc(O[C@H]3CC[C@H](N4CCC(c5cnc(N6C7CCC6CN(c6cc(-c8ccccc8O)nnc6N)C7)nc5)CC4)CC3)no2)C(C)C)cc1 (some centres unmarked) in your reply.
RESULT: > 90%

QUERY: Supply measured Dmax of Cc1ncsc1-c1ccc(CNC(=O)[C@@H]2C[C@@H](O)CN2C(=O)C(c2cc(N3CCC(CCN4CCC(c5cnc(N6C7CCC6CN(c6cc(-c8ccccc8O)nnc6N)C7)nc5)CC4)CC3)no2)C(C)C)cc1 (some centres unmarked) in your reply.
RESULT: > 90%
